molecular target: human adenosine A1 receptor (Homo sapiens (Human)); experiment: Adenosine receptor inhibition binding assay, [3H]DPCPX, A1 receptor membranes; details: 1 nM [3H]DPCPX, 25° C., 1 h; Ki from IC50 by Cheng-Prusoff
Sequence (P30542 whole entry): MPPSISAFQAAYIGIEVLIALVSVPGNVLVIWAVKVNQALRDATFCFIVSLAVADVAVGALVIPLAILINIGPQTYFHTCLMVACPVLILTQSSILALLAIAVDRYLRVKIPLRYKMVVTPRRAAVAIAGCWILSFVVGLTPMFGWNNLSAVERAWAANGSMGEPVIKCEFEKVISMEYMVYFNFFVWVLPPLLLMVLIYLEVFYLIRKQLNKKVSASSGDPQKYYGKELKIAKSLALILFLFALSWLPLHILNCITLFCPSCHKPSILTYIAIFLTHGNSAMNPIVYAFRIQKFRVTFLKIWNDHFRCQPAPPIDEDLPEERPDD
Recorded A1 pKi, one value per entry.
No unit in the answer, please; the number alone is enough.

Please review the entries below; each comes with its answer.
compound	observed.result
Cc1cc(-c2c(-c3ccccc3)nc(N)n3c(=O)n(C[C@@H]4C[C@H](O)CN4)nc23)cc(C)n1	5.9
Cc1cc(-c2c(-c3ccccc3)nc(N)n3c(=O)n(Cc4nccn4C)nc23)cc(C)[n+]1[O-]	7.3
Cc1cc(-c2c(-c3ccccc3)nc(N)n3c(=O)n(Cc4ccon4)nc23)cc(C)n1	6.8

Query: Give the measured A1 pKi of `Cc1cc(-c2c(-c3ccccc3)nc(N)n3c(=O)n(C[C@H]4CCCO4)nc23)cc(C)n1` .
Reply: 6.7

Query: Give the measured A1 pKi of `Cc1cc(-c2c(-c3ccccc3)nc(N)n3c(=O)n(Cc4nccn4C)nc23)cc(C)n1` .
Reply: 7.8

Query: Give the measured A1 pKi of `Cc1cc(-c2c(-c3ccccc3)nc(N)n3c(=O)n(Cc4coc(C)n4)nc23)cc(C)n1` .
Reply: 6.7
